Every entry's value here was drawn from patent US20170088610A1.

Molecular target: T1, human nerve growth factor (human, UniProt P01138 122-241)
T1 construct: Immobilised on CM5 chips for BIAcore, soluble in neuron survival assays; also called human NGF; hNGF
T1 sequence (P01138 122-241 limits assumed): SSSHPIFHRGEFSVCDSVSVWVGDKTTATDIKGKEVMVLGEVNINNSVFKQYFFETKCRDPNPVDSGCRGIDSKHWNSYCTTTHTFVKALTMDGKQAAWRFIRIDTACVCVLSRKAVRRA
Assay: BIAcore SPR screen, Fab over immobilised human NGF; KD calculated from koff with kon 4e4 M-1s-1
Kd reference
MEASURED_PROPERTY: Kd (nM)

BINDER: heavy chain library clone H222 (Fab, V domains shown, See note of m8) VH: QVQLQESGPGLVKPSETLSLTCTVSGFSLIGYDVTWIRQPPGKGLEWIGGIWGDGTTDYNSAVKSRVTISKDTSKNQFSLKLSSVTAADTAVYYCARGGYYYGTSYYFDYWGQGTLVTVS VL: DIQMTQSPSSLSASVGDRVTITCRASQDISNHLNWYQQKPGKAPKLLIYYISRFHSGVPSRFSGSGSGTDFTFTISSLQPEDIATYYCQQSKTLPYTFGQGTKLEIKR
MEASURED_PROPERTY: Kd
UNIT_ABBREVIATION: nM
OBS_VALUE: 9.5
//
BINDER: 8L2-6D5 (CDR-grafted antibody with framework mutation V71K) (Fab, V domains shown, Fab (human IgG2 CH1 + C-kappa, His tag at heavy chain C terminus); also called 8L2-6D5 Fab; 8L2-6D5 (control)) VH: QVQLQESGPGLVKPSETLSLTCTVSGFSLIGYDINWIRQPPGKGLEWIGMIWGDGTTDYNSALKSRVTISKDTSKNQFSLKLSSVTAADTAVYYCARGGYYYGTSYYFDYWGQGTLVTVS VL: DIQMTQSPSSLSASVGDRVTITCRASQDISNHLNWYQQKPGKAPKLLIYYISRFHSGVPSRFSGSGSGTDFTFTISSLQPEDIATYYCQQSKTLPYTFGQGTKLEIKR
MEASURED_PROPERTY: Kd
UNIT_ABBREVIATION: nM
OBS_VALUE: 25
//
BINDER: heavy chain library clone H225 (Fab, V domains shown, See note of m8) VH: QVQLQESGPGLVKPSETLSLTCTVSGFSLIGYDVTWIRQPPGKGLEWIGGIWGDGTTDYNSSVKSRVTISKDTSKNQFSLKLSSVTAADTAVYYCARGGYYYGTSYYFDYWGQGTLVTVS VL: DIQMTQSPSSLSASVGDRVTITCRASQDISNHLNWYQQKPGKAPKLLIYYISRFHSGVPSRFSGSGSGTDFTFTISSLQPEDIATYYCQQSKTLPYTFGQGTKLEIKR
MEASURED_PROPERTY: Kd
UNIT_ABBREVIATION: nM
OBS_VALUE: 9.5
//
BINDER: light chain library clone L6 (Fab, V domains shown, See note of m8) VH: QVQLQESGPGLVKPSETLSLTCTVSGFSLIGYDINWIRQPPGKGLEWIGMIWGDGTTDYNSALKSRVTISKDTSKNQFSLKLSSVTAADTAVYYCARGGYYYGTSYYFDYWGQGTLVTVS VL: DIQMTQSPSSLSASVGDRVTITCRAFQSISNQLNWYQQKPGKAPKLLIYYASRFHSGVPSRFSGSGSGTDFTFTISSLQPEDIATYYCQQSKTLPYTFGQGTKLEIKR
MEASURED_PROPERTY: Kd
UNIT_ABBREVIATION: nM
OBS_VALUE: 20
//
BINDER: light chain library clone L208 (Fab, V domains shown, See note of m8) VH: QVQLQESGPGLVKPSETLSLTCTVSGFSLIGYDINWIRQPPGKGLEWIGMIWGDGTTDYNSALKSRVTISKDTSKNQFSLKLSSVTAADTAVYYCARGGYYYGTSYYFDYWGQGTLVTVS VL: DIQMTQSPSSLSASVGDRVTITCRASQYISNHLNWYQQKPGKAPKLLIYYTSRFHSGVPSRFSGSGSGTDFTFTISSLQPEDIATYYCQQSKTLPYTFGQGTKLEIKR
MEASURED_PROPERTY: Kd
UNIT_ABBREVIATION: nM
OBS_VALUE: 11
